// data source = PubChem BioAssay AID1159580

assay: chemical genetic growth profiling, strain panel (AID 1159580);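 note: tested at 20 µM; growth read once vehicle control cultures reached saturation at 30 °C; 1 = growth at the plate median or of vehicle wells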; details: S. cerevisiae deletion strains, growth OD, locus YJL187C, strain SWE1, stronger effect = lower value
Hit rate of the full screen: of about 5,500 compounds, about 2,000 (36%) were called active. Inconclusive results (about 18%) are left out. This is one part of the list.

{"chem smiles": "CCOC(=O)c1ncn2c1CN(C)C(=O)c1cc(F)ccc1-2", "normalized growth": "1.02 (inactive)"}
{"chem smiles": "O=c1ccc2ccccc2o1", "normalized growth": "0.982 (inactive)"}
{"chem smiles": "CC(C)=CCc1c(O)cc2oc(C)cc(=O)c2c1O", "normalized growth": "0.98 (inactive)"}

====

test: chemical genetic growth profiling, strain panel (AID 1159580); details: S. cerevisiae deletion strains, growth OD, locus YNL250W, strain rad50
Among all 5,500 compounds or so, about 2,000 (36%) were called active. Inconclusive results (about 18%) are left out. Cut-off read from the data, not from the text of the source: active = normalized growth mostly below about 0.91 (no sharp cut-off); inconclusive = no clear call, values can overlap the other calls; inactive = mostly above about 0.92. The list shows a part of the results.
Outcome codes: active, inactive

{"molecule": "NC(N)=Nc1nc(CSCCC(N)=NS(N)(=O)=O)cs1", "classification": "inactive"}
{"molecule": "c1ccc(CC2=NCCN2)cc1", "classification": "active"}
{"molecule": "CC(=O)O[C@]1(C(C)=O)CCC2C3C=C(C)C4=CC(=O)CCC4(C)C3CCC21C (stereo partly drawn)", "classification": "inactive"}
{"molecule": "CC(=O)[C@H]1CCC2C3C[C@H](C)C4=CC(=O)CC[C@]4(C)C3[C@@H](O)C[C@@]21C (stereo partly drawn)", "classification": "inactive"}
{"molecule": "CC(=O)OCC(CCn1cnc2cnc(N)nc21)COC(C)=O", "classification": "inactive"}
{"molecule": "COC(=O)COc1cc(Cl)c(Cl)cc1Cl", "classification": "inactive"}
{"molecule": "CC(C)=CCc1c(O)cc2oc(C)cc(=O)c2c1O", "classification": "inactive"}
{"molecule": "CC(C)N(C(=O)CCl)c1ccccc1", "classification": "inactive"}
{"molecule": "O=C(O)COc1cc(Cl)c(Cl)cc1Cl", "classification": "inactive"}
{"molecule": "CC(=O)O[C@]1(C(C)=O)CCC2C3C[C@H](C)C4=CC(=O)CC[C@]4(C)C3CC[C@@]21C (stereo partly drawn)", "classification": "inactive"}
{"molecule": "NC/C=C/C(=O)O", "classification": "inactive"}
{"molecule": "COC(=O)COc1ccc(Cl)cc1Cl", "classification": "inactive"}
{"molecule": "O=C(O)c1cc(=O)c2cc(Cl)ccc2[nH]1", "classification": "inactive"}

====

test: chemical genetic growth profiling, strain panel (AID 1159580);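 note: tested at 20 µM; growth read once vehicle control cultures reached saturation at 30 °C; 1 = growth at the plate median or of vehicle wells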; settings: S. cerevisiae deletion strains, growth OD, locus YHR142W, strain chs7
The campaign covered roughly 5,500 compounds. About 2,000 (36%) were called active. About 18% were inconclusive and are not listed. No stated cut-off is given here; in the data, active means normalized growth mostly below about 0.91 (no sharp cut-off); inconclusive means no clear call, values can overlap the other calls; inactive means mostly above about 0.92. The list shows a part of the results.
Possible outcomes: active, inactive

{"compound": "CC(C)(CO)C(O)C(=O)NCCCO (configuration not stated)", "classification": "inactive"}
{"compound": "CC(=O)OC1CC23CC24CCC(OC2OCC(O)C(O)C2O)C(C)(C)C4CCC3C2(C)CC3OC4(CC(C)C3C12C)OC(O)C1(C)OC41 (configuration not stated)", "classification": "inactive"}
{"compound": "COC(=O)COc1cc(Cl)c(Cl)cc1Cl", "classification": "inactive"}
{"compound": "O=C(O)COc1cc(Cl)c(Cl)cc1Cl", "classification": "inactive"}
{"compound": "CC(C)N(C(=O)CCl)c1ccccc1", "classification": "inactive"}
{"compound": "COc1cccc([C@]2(O)CCCC[C@H]2CN(C)C)c1", "classification": "inactive"}
{"compound": "COc1c2c(c(CC=C(C)C)c3oc(=O)c(-c4ccc(O)cc4)c(O)c13)OC(C)(C)C=C2", "classification": "active"}
{"compound": "CN=C(NC#N)NCCSCc1nc[nH]c1C", "classification": "inactive"}
{"compound": "Cc1c(N(C)C)c(=O)n(-c2ccccc2)n1C", "classification": "inactive"}
{"compound": "COc1cc2c(cc1OC)C(=O)C(CC1CCN(Cc3ccccc3)CC1)C2 (configuration not stated)", "classification": "inactive"}
{"compound": "CN1C2CC3C[C@H]1C(O3)C2O (some centres not stated)", "classification": "inactive"}
{"compound": "CC[C@H]1OC(=O)C[C@@H](O)[C@H](C)[C@@H](O[C@@H]2O[C@H](C)[C@@H](O[C@H]3C[C@@](C)(O)[C@@H](O)[C@H](C)O3)[C@H](N(C)C)[C@H]2O)[C@@H](CC=O)C[C@@H](C)C(=O)/C=C/C(C)=C/[C@@H]1CO[C@@H]1O[C@H](C)[C@@H](O)[C@@H](OC)[C@H]1OC", "classification": "inactive"}
{"compound": "CN1CCc2cc3c(cc2C1O)OCO3 (configuration not stated)", "classification": "inactive"}
{"compound": "CC(C(=O)O)c1ccc2c(c1)[nH]c1ccc(Cl)cc12 (configuration not stated)", "classification": "inactive"}
{"compound": "O=C(O)c1cc(=O)c2ccc(Cl)cc2[nH]1", "classification": "inactive"}
{"compound": "N=c1nc(N2CCCCC2)cc(N)n1O", "classification": "inactive"}
{"compound": "CCc1nc(N)nc(N)c1-c1ccc(Cl)cc1", "classification": "inactive"}

====

Reported normalized growth by item:
assay: chemical genetic growth profiling, strain panel (AID 1159580);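 note: tested at 20 µM; growth read once vehicle control cultures reached saturation at 30 °C; 1 = growth at the plate median or of vehicle wells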; conditions: S. cerevisiae deletion strains, growth OD, locus YEL003W, strain gim4, stronger effect = lower value
Among all 5,500 compounds or so, about 2,000 (36%) were called active. Not shown: some 18% with an inconclusive outcome. This is one part of the list.

{"compound": "CC[C@@H](CO)NCCN[C@@H](CC)CO", "normalized growth": 0.999}
{"compound": "OCC(O)Cc1ccc2c(c1)OCO2 (centres undefined)", "normalized growth": 1.01}
{"compound": "CC(=O)O[C@H]1C(=O)[C@@]2(C)C([C@H](OC(=O)c3ccccc3)[C@]3(O)C[C@H](OC(=O)[C@H](O)[C@@H](NC(=O)c4ccccc4)c4ccccc4)C(C)=C1C3(C)C)[C@]1(OC(C)=O)CO[C@@H]1C[C@@H]2O (some centres undefined)", "normalized growth": 0.979}
{"compound": "C[N+](C)(C)CC(=O)[O-]", "normalized growth": 0.99}
{"compound": "CC(=O)O[C@]1(C(C)=O)CCC2C3C[C@H](C)C4=CC(=O)CC[C@]4(C)C3CC[C@@]21C (some centres undefined)", "normalized growth": 0.987}
{"compound": "C=CCc1ccc2c(c1)OCO2", "normalized growth": 1.02}
{"compound": "NC/C=C/C(=O)O", "normalized growth": 0.99}
{"compound": "CC(=O)OCC(CCn1cnc2cnc(N)nc21)COC(C)=O", "normalized growth": 0.984}
{"compound": "CC(=O)O[C@H]1C(=O)[C@@]2(C)C([C@H](OC(=O)c3ccccc3)[C@]3(O)C[C@H](O)C(C)=C1C3(C)C)[C@]1(OC(C)=O)CO[C@@H]1C[C@@H]2O (some centres undefined)", "normalized growth": 0.991}

====

experiment: chemical genetic growth profiling, strain panel (AID 1159580);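 note: tested at 20 µM; growth read once vehicle control cultures reached saturation at 30 °C; 1 = growth at the plate median or of vehicle wells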; conditions: S. cerevisiae deletion strains, growth OD, locus YGL078C, strain dbp3
In all, about 5,500 compounds went through this assay and about 2,000 (36%) were called active. Another 18% or so got no clear call; they are omitted. Cut-off read from the data, not from the text of the source: active = normalized growth mostly below about 0.91 (no sharp cut-off); inconclusive = no clear call, values can overlap the other calls; inactive = mostly above about 0.92. This is one part of the list.
Labels: 1 (active), 0 (inactive)

{"molecule": "C/C=C(/C(=C/C)c1ccc(O)cc1)c1ccc(O)cc1", "classification": 1}
{"molecule": "Cc1cc(=O)c2c(O)c(C)c(O)cc2o1", "classification": 0}
{"molecule": "COc1c(O)cc2oc3cc(O)c(CC=C(C)C)c(O)c3c(=O)c2c1CC=C(C)C", "classification": 1}
{"molecule": "COc1cc(OC)c2c(c1)O[C@H](c1ccc(OC)c(OC)c1)[C@@H](O)C2", "classification": 0}
{"molecule": "CCC1(C)CC(=O)NC1=O (stereo unspecified)", "classification": 0}
{"molecule": "CCC(C(N)=O)c1ccccc1 (stereo unspecified)", "classification": 0}
{"molecule": "Cn1cc[nH]c1=S", "classification": 0}
{"molecule": "NC(=O)N1c2ccccc2CC(=O)c2ccccc21", "classification": 0}
{"molecule": "CNC1(C)C2CCC(C2)C1(C)C (stereo unspecified)", "classification": 0}
{"molecule": "O=C(O)C1CC([C@@H]2CCCCN2)CN2CCCCC12 (stereo partly specified)", "classification": 0}
{"molecule": "COc1cc(OC)c2c(c1)OC(c1ccc(OC)c(OC)c1)C(O)C2 (stereo unspecified)", "classification": 0}
{"molecule": "COc1ccc2c(c1)OC[C@@H](Cc1ccc(OC)c(OC)c1)[C@@H]2O", "classification": 0}
{"molecule": "O=C(O)c1ccccc1OP(=O)(O)O", "classification": 0}
{"molecule": "Oc1ccc(O)cc1", "classification": 0}
{"molecule": "COc1ccc(C[C@H]2NC[C@H](O)[C@H]2OC(C)=O)cc1", "classification": 0}
{"molecule": "CN1Cc2c(ccc3c2OCO3)C2C(O)Cc3cc4c(cc3C21)OCO4 (stereo unspecified)", "classification": 0}
{"molecule": "C=C(C)/C=C1/C=CC(=O)C(C)=C1", "classification": 1}
{"molecule": "O=C1C[C@@H](c2ccccc2)Oc2cc(O)cc(O)c21", "classification": 0}
{"molecule": "Cc1ccc(O)cc1", "classification": 0}
{"molecule": "Nc1nc2[nH]c(=O)c(=O)[nH]c2c(=O)[nH]1", "classification": 0}
{"molecule": "C=CC(C)(C)c1c2c(c(O)c3c(=O)c4ccc(O)c(O)c4oc13)C=CC(C)(C)O2", "classification": 0}
{"molecule": "COc1ccc2c(c1)OC[C@@H](Cc1ccc(OC)c(OC)c1)[C@H]2O", "classification": 0}
{"molecule": "O=C(O)COc1cc(Cl)c(Cl)cc1Cl", "classification": 0}
{"molecule": "CCOC(=O)/C=C(\\C)OP(=O)(OC)OC", "classification": 0}
{"molecule": "COC(=O)COc1cc(Cl)c(Cl)cc1Cl", "classification": 0}
{"molecule": "CCc1ccc(CCOc2ccc(CC3SC(=O)NC3=O)cc2)nc1 (stereo unspecified)", "classification": 0}
